target.entity: T1, recombinant human IL4Rα-his protein (in house made) (human, UniProt P24394 26-232, limits assumed)
T1 construct: also called Human IL4Ra-his
experiment.description: SPR (Biacore), antibody captured, IL4Rα-his flowed
// kon lookup, one value per entry
Supply the numeric figure in M⁻¹ s⁻¹, leaving out any unit text.

Guide cases for kon, answers given:
binder	measured.result
huC2C1A1A1-V2 (antibody, human IgG4 S228P, kappa, V domains shown, Humanized, human IgG4/kappa) VH: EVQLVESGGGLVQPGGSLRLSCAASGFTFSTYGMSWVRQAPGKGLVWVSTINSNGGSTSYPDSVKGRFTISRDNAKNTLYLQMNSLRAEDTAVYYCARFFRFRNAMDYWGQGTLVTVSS VL: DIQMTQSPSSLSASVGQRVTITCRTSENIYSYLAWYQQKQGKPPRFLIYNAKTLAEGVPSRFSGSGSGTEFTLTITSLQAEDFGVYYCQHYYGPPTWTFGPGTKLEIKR	226000
huC2C1A1A1-V12 (antibody, human IgG4 S228P, kappa, V domains shown, Humanized, human IgG4/kappa) VH: EVQLVESGGGLVQPGGSLRLSCAASGFTFSTYGMSWVRQAPGKGLVLVATINSNGGSTSYPDSVKGRFTISRDNAKNTLYLQMNSLRAEDTAVYYCARFFRFRNAMDYWGQGTLVTVSS VL: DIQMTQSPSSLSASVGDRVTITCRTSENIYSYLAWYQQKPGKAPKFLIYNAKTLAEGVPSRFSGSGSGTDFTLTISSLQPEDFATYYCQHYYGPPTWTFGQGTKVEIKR	302000
huC2C1A1A1-V7 (antibody, human IgG4, V domains shown, Humanized, human IgG4/kappa) VH: EVQLVESGGGLVQPGGSLRLSCAASGFTFSTYGMSWVRQSPDKRLEWVSTINSNGGSTSYPDSVKGRFTISRDNAKNTLYLQMRSLRAEDTAVYYCARFFRFRNAMDYWGQGTLVTVSS VL: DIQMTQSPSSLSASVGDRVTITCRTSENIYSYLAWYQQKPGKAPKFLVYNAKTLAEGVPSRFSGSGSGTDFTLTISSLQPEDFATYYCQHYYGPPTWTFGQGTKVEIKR	263000
huC2C1A1A1-V8 (antibody, human IgG4 S228P, kappa, V domains shown, Humanized, human IgG4/kappa) VH: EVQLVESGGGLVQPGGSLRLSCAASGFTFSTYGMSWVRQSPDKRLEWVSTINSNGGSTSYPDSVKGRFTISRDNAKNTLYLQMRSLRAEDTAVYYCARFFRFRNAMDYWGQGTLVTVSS VL: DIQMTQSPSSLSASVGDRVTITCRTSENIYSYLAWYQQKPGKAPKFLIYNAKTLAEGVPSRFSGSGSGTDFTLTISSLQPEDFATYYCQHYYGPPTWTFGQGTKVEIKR	278000
huC2C1A1A1-V13 (antibody, human IgG4 S228P, kappa, V domains shown, Humanized, human IgG4/kappa) VH: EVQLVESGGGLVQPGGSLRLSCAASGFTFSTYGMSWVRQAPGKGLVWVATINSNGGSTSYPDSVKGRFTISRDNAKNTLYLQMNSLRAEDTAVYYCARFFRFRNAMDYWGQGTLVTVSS VL: DIQMTQSPSSLSASVGDRVTITCRTSENIYSYLAWYQQKPGKAPKLLIYNAKTLAEGVPSRFSGSGSGTDFTLTISSLQPEDFATYYCQHYYGPPTWTFGQGTKVEIKR	119000

Looking up huC2C1A1A1-V11 (antibody, human IgG4, V domains shown, Humanized, human IgG4/kappa) VH: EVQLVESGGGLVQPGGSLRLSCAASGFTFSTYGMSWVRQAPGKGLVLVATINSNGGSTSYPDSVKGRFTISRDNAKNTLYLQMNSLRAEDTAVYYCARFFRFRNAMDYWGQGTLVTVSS VL: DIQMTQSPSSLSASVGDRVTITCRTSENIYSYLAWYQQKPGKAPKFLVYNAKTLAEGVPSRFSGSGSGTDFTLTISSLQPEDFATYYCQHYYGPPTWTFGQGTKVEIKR , I see its kon listed as 330000

Looking up huC2C1A1A1-V14 (antibody, human IgG4 S228P, kappa, V domains shown, Humanized, human IgG4/kappa) VH: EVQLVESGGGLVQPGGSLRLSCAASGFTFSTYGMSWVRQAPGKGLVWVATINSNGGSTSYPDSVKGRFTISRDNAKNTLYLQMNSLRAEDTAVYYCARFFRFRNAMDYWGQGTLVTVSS VL: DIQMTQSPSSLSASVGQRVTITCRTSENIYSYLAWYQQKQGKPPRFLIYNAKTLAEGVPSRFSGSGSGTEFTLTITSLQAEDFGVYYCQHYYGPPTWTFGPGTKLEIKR , I see its kon listed as 153000

The values you see were collected from patent US20230105029A1.
